Just for reference, patent US20120184590A1 is where these values come from.

# experiment.description: Pharmacokinetics of SR13668 in monkeys after i.v. and oral gavage dosing
# Type: in vivo, cynomolgus monkeys (macaca fasicularis)
# conditions.used: male, cynomolgus monkey, whole blood, po, 7.02 mg/kg, 84.2 mg/m^2 (7.02 mg/kg) oral gavage, Solutol, seventh daily dose, fed

compound | unit.of.measurement | half-life
CCOC(=O)c1ccc2[nH]c3c(OC)c4[nH]c5ccc(C(=O)OCC)cc5c4cc3c2c1 [SR13668] | h | 7.7

* * *

# experiment.description: Pharmacokinetics of SR13668 in dogs after i.v. and oral gavage dosing
# Format: in vivo, beagle dogs
# conditions.used: male, beagle, dog, plasma, po, 4.68 mg/kg, dogs; 93.6 mg/m^2 (4.68 mg/kg) oral gavage, Solutol, seventh daily dose; fed

smiles | MRT [h]
CCOC(=O)c1ccc2[nH]c3c(OC)c4[nH]c5ccc(C(=O)OCC)cc5c4cc3c2c1 | 7.1

* * *

# experiment.description: Pharmacokinetics of SR13668 in dogs after i.v. and oral gavage dosing
# Assay type: in vivo, beagle dogs
# conditions.used: male, beagle, dog, whole blood, po, 4.68 mg/kg, dogs; 93.6 mg/m^2 (4.68 mg/kg) oral gavage, Solutol, seventh daily dose; fasted
# Experimental: Four non-naïve male beagle dogs (approximately 3 years of age; Ridglan Farms Inc. Mt. Horeb, Wis.) and four non-naïve male cynomolgus monkeys [cynos (macaca fasicularis); approximately 7 to 8 years of age; Charles River Laboratories, Inc., Houston, Tex.] were used in this study. […] A freshly prepared SR13668 standard curve was analyzed along with samples on each day of analysis. […]
measured.quantity: MRT (h)

smiles | unit.of.measurement | number
CCOC(=O)c1ccc2[nH]c3c(OC)c4[nH]c5ccc(C(=O)OCC)cc5c4cc3c2c1 | h | 10.9

* * *

# experiment.description: Solubility of SR13668 in various solvents
# Assay type: physicochemical
# conditions.used: organic solvent or mixture, thermodynamic from solid; Absolute Ethanol; RT; HPLC
measured.quantity: solubility (µg/mL)

compound | unit.of.measurement | number
CCOC(=O)c1ccc2[nH]c3c(OC)c4[nH]c5ccc(C(=O)OCC)cc5c4cc3c2c1 [SR13668] | µg/mL | 75

* * *

# experiment.description: Pharmacokinetics of SR13668 in dogs after i.v. and oral gavage dosing
# Format: in vivo, beagle dogs
# conditions.used: male, beagle, dog, plasma, po, 4.68 mg/kg, dogs; 93.6 mg/m^2 (4.68 mg/kg) oral gavage, Solutol, seventh daily dose; fed

smiles | unit.of.measurement | Tmax
CCOC(=O)c1ccc2[nH]c3c(OC)c4[nH]c5ccc(C(=O)OCC)cc5c4cc3c2c1 | h | 1.8

* * *

# experiment.description: Pharmacokinetics of SR13668 in dogs after i.v. and oral gavage dosing
# Type: in vivo, beagle dogs
# conditions.used: male, beagle (dogs), dog; across all oral groups, dogs and monkeys; plasma; read-out: plasma oral bioavailability, range
measured.quantity: bioavailability

molecule | measured.quantity | result
CCOC(=O)c1ccc2[nH]c3c(OC)c4[nH]c5ccc(C(=O)OCC)cc5c4cc3c2c1 [SR13668] | bioavailability | 0.7 to 14.6%

* * *

# experiment.description: Pharmacokinetics of SR13668 in monkeys after i.v. and oral gavage dosing
# Format: in vivo, cynomolgus monkeys (macaca fasicularis)
# conditions.used: male, cynomolgus monkey, whole blood, iv, 7.02 mg/kg, whole blood, 84.2 mg/m^2 (7.02 mg/kg) iv single dose, DMSO:PEG300 15:85 v/v, fed

smiles | half-life
CCOC(=O)c1ccc2[nH]c3c(OC)c4[nH]c5ccc(C(=O)OCC)cc5c4cc3c2c1 | 8.6 h
